# Test system: BT-549 breast
# measurement-notes: NCI-60 one-dose screen, 48 h (100 = growth as untreated, 0 = no growth, -100 = all killed)
# test-settings: 10 µM unless noted
Compounds without any hit were thinned out: in the full panel of roughly 83,000, 20% have a hit.
Record form. Attribute: growth. Fill in for each entry.
Answers are plain numbers, in %.

Report growth for every entry below.
1. CC[C@@H](C)/C=C(C)/C=C/C(O)=C1\C(=O)N[C@@H](Cc2ccc(OC(=O)[C@@](OC)(c3ccccc3)C(F)(F)F)cc2)C1=O
2. Cc1ccc(OCC(=O)Nc2ccc(Oc3ccccc3)cc2)c([N+](=O)[O-])n1
3. O=C(NN1C(=O)c2cc(C(=O)O)c(C(=O)O)cc2C1=O)c1ccncc1
4. O=C(C(=O)c1cc(Br)ccc1O)c1cc(Br)ccc1O

88.8
98.5
103
21.7
